Reported Euclidean distance values for the following compounds.
System: 786-O
Assay: Euclidean distance of Cell Painting phenotypic profile (signed KS, 77 features) to DMSO centroid (dimensionless distance); 5 or 10 uM (library dependent); higher = stronger phenotypic change vs DMSO (phenoactivity)
Conditions: 48 h
Counter-ions that a name gives are not always drawn.
The response must contain the number and no unit.

Known results for compounds:
1) O=C(Nc1ccccc1)OCC(CN1CCCCC1)OC(=O)Nc1ccccc1 (stereo not drawn) [Diperodon HCl] ... 1.03
2) CC(C)C[C@H](NC(=O)CNC(=O)[C@H](Cc1ccc(O)cc1)NC(=O)[C@H](CO)NC(=O)[C@H](Cc1c[nH]c2ccccc12)NC(=O)[C@H](Cc1cnc[nH]1)NC(=O)[C@@H]1CCC(=O)N1)C(=O)N[C@@H](CCCNC(=N)N)C(=O)N1CCC[C@H]1C(=O)NCC(N)=O [Gonadorelin Acetate] ... 1.59
3) Nc1ccc(S(=O)(=O)Nc2ccc(Cl)nn2)cc1 ... 1.32
4) C[C@@H](O)[C@H]1C(=O)N2C(C(=O)O)=C(S[C@@H]3CN[C@H](CNS(N)(=O)=O)C3)[C@H](C)[C@H]12 ... 0.636
5) COc1ccc([C@@H]2Sc3ccccc3N(CCN(C)C)C(=O)[C@@H]2OC(C)=O)cc1 [Diltiazem HCl] ... 0.663

Query: Identify the measured Euclidean distance of CC(=O)O[C@H]1CC[C@@]2(C)C(=CC[C@@H]3[C@@H]2CC[C@]2(C)C(c4cccnc4)=CC[C@@H]32)C1 [Abiraterone Acetate] for 786-O.
Response: 1.52

Query: Another: O=C(NCCS(=O)(=O)c1ccc(C(F)(F)F)cn1)c1ccc(Cl)cc1
Response: 0.975

Query: Another: CC(=O)N[C@@H](CS)C(=O)O
Response: 0.996

Query: Another: C=CC(=O)Nc1cc(Nc2nccc(-c3cn(C)c4ccccc34)n2)c(OC)cc1N(C)CCN(C)C
Response: 4.93

---

System: DU145
Assay: Euclidean distance of Cell Painting phenotypic profile (signed KS, 77 features) to DMSO centroid (dimensionless distance); 5 or 10 uM (library dependent); higher = stronger phenotypic change vs DMSO (phenoactivity)
Details: 48 h
Where a name gives a salt, the structure may show the parent alone.
Returns label 1 if the recorded Euclidean distance is greater than or equal to 1, and label 0 otherwise.

Consider the following illustrative entries.
1) O=C(O)CCc1nc(-c2ccccc2)c(-c2ccccc2)o1 ... label 0
2) O=C1[C@H]2CCCC[C@H]2C(=O)N1CCCCN1CCN(c2nsc3ccccc23)CC1 [Perospirone hydrochloride] ... label 1
3) CC(C)N(C[C@H]1O[C@@H](n2cnc3c(N)ncnc32)[C@H](O)[C@@H]1O)[C@H]1C[C@@H](CCc2nc3cc(C(C)(C)C)ccc3[nH]2)C1 ... label 1

Query: State whether the measured Euclidean distance reaches 1, counting equality as reaching it, for Cc1nc(C(=O)NCC(=O)O)c(O)c2ccc(Oc3ccccc3)cc12
Response: label 1

Query: Another: Cc1cccc(-c2[nH]c(C(C)(C)C)nc2-c2ccc3nccnc3c2)n1
Response: label 0

Query: Another: CN[C@H]1CC[C@@H](c2ccc(Cl)c(Cl)c2)c2ccccc21 [Sertraline HCl]
Response: label 1

Query: Another: OC(CCN1CCCCC1)(c1ccccc1)C1CCCCC1 (configuration not stated) [Trihexyphenidyl hydrochloride]
Response: label 0

Query: Another: COc1cc2c(cc1OC)[C@@H]1Cc3ccc(OC)c(OC)c3CN1CC2 [Tetrahydropalmatine]
Response: label 0

Query: Another: CNC(=O)c1cc(Oc2ccc3nc(N[C@@H]4CCCC[C@H]4O)sc3c2)ccn1
Response: label 1

Query: Another: COc1ccccc1N1CCN(CC(O)COc2cccc3ccccc23)CC1 (configuration not stated)
Response: label 0

Query: Another: Cc1cc(Nc2ccc(NC(=O)c3ccc(Nc4ccnc5ccccc45)cc3)cc2)nc(N)n1
Response: label 1

Query: Another: CC1=C(C(=O)Nc2cc3cn[nH]c3cc2F)C(c2ccc(C(F)(F)F)cc2)CC(=O)N1 (configuration not stated)
Response: label 1

Query: Another: COCC1=C(C(=O)OC(C)OC(=O)OC(C)C)N2C(=O)[C@@H](NC(=O)/C(=N\OC)c3csc(N)n3)[C@H]2SC1 (some centres not stated)
Response: label 0

Query: Another: NS(=O)(=O)c1cc(Cl)c(Cl)c(S(N)(=O)=O)c1 [Dichlorphenamide]
Response: label 0

Query: Another: CCOc1ccccc1OC(c1ccccc1)C1CNCCO1 (configuration not stated) [Reboxetine mesylate]
Response: label 1

Query: Another: CCCCC[C@H](O)/C=C/[C@H]1[C@H](O)CC(=O)[C@@H]1C/C=C\CCCC(=O)O [Prostaglandin E2 (PGE2)]
Response: label 0

Query: Another: O=c1c(O[C@@H]2O[C@H](CO)[C@@H](O)[C@H](O)[C@H]2O)c(-c2ccc(O)c(O)c2)oc2cc(O)cc(O)c12
Response: label 0

---

System: OVCAR4
Experiment: Euclidean distance of Cell Painting phenotypic profile (signed KS, 77 features) to DMSO centroid (dimensionless distance); 5 or 10 uM (library dependent); higher = stronger phenotypic change vs DMSO (phenoactivity)
Conditions: 48 h
Counter-ions that a name gives are not always drawn.
Reported Euclidean distance values for the following compounds.
The response must contain the number and no unit.

1. COc1c(C)c2c(c(O)c1C/C=C(\C)CCC(=O)O)C(=O)OC2 [Mycophenolic acid] ... 3.28

Query: Identify the measured Euclidean distance of CC1(C)[C@@H](O[C@H]2O[C@H](C(=O)O)[C@@H](O)[C@H](O)[C@H]2O[C@@H]2O[C@H](C(=O)O)[C@@H](O)[C@H](O)[C@H]2O)CC[C@]2(C)[C@H]3C(=O)C=C4[C@@H]5C[C@@](C)(C(=O)O)CC[C@]5(C)CC[C@@]4(C)[C@]3(C)CC[C@@H]12 [Diammonium Glycyrrhizinate] for OVCAR4.
Response: 1.73

Query: Another: COc1ccnc(C[S+]([O-])c2nc3cc(OC(F)F)ccc3[nH]2)c1OC (configuration not stated) [Pantoprazole]
Response: 1.62

Query: Another: CN(C)CCCN1c2ccccc2Sc2ccccc21 [Promazine hydrochloride]
Response: 1.58

Query: Another: Cc1ccc(-c2cc(C(F)(F)F)nn2-c2ccc(S(N)(=O)=O)cc2)cc1 [Celecoxib]
Response: 1.37

Query: Another: CC[C@]12CCCN3CCc4c(n(c5ccccc45)[C@@](O)(C(=O)OC)C1)[C@@H]32 [Vincamine]
Response: 1.18

---

Reported Euclidean distance values for the following compounds.
System: OVCAR4
Test: Euclidean distance of Cell Painting phenotypic profile (signed KS, 77 features) to DMSO centroid (dimensionless distance); 5 or 10 uM (library dependent); higher = stronger phenotypic change vs DMSO (phenoactivity)
Settings: 48 h
The response must contain the number and no unit.

Query: What value of Euclidean distance has been recorded for this entry: C=CCc1ccc(O)c(OC)c1
Response: 1.51

Query: Another: COc1c(N2C[C@@H]3CCCN[C@@H]3C2)c(F)cc2c(=O)c(C(=O)O)cn(C3CC3)c12
Response: 0.918

Query: Another: CN(CCOc1ccc(NS(C)(=O)=O)cc1)CCc1ccc(NS(C)(=O)=O)cc1 [Dofetilide]
Response: 1.02

Query: Another: CC(C)(C)NC(=O)[C@H]1CC[C@H]2[C@@H]3CC[C@H]4NC(=O)C=C[C@]4(C)[C@H]3CC[C@]12C [Finasteride]
Response: 1.18

---

Test system: OVCAR4
Experiment: Euclidean distance of Cell Painting phenotypic profile (signed KS, 77 features) to DMSO centroid (dimensionless distance); 5 or 10 uM (library dependent); higher = stronger phenotypic change vs DMSO (phenoactivity)
Conditions: 48 h
Counter-ions that a name gives are not always drawn.
Returns true (1) if the recorded Euclidean distance is greater than or equal to 1, and false (0) otherwise.

1) CC(C)(O)CC[C@@H](O)[C@](C)(O)[C@H]1CC[C@@]2(O)C3=CC(=O)[C@@H]4C[C@@H](O)[C@@H](O)C[C@]4(C)[C@H]3CC[C@]12C [20-Hydroxyecdysone] ... true (1)
2) O=C(O)COC(=O)Cc1ccccc1Nc1c(Cl)cccc1Cl ... false (0)

Query: State whether the measured Euclidean distance reaches 1, counting equality as reaching it, for Nc1ccc(S(N)(=O)=O)cc1 [Sulfanilamide]
Response: true (1)

Query: Another: O=C(NCc1c(F)cc(F)cc1F)c1cn2c(c(O)c1=O)C(=O)N1[C@H]3CC[C@H](C3)O[C@@H]1C2
Response: true (1)

Query: Another: OCc1ccccc1
Response: true (1)

Query: Another: O=C(OC(C(F)(F)F)C(F)(F)F)N1CCN(Cc2ccc(C(F)(F)F)cc2N2CCCC2)CC1
Response: true (1)

Query: Another: CN[C@H]1CC[C@@H](c2ccc(Cl)c(Cl)c2)c2ccccc21 [Sertraline HCl]
Response: true (1)

Query: Another: CN(C)[C@@H](CCOc1cccc2ccccc12)c1ccccc1 [Dapoxetine HCl]
Response: true (1)

Query: Another: O=C(c1ccc(F)cc1)C1CCN(CCn2c(=O)[nH]c3ccccc3c2=O)CC1
Response: true (1)

Query: Another: COc1ccc(C2C(=O)c3ccccc3C2=O)cc1
Response: false (0)

Query: Another: NC(=O)c1cn(Cc2c(F)cccc2F)nn1 [Rufinamide]
Response: true (1)

Query: Another: CCC[S+]([O-])c1ccc2[nH]c(NC(=O)OC)nc2c1 (stereo not drawn) [Albendazole Oxide]
Response: true (1)

Query: Another: Cc1ccc(-c2ncc(Cl)cc2-c2ccc(S(C)(=O)=O)cc2)cn1
Response: false (0)

Query: Another: Nc1ccc(C(=O)O)c(O)c1
Response: false (0)

Query: Another: CNC(=O)c1cc(Oc2ccc(NC(=O)Nc3ccc(Cl)c(C(F)(F)F)c3)cc2)ccn1
Response: true (1)

Query: Another: CCOC(=O)CCC(=O)O[C@H]1[C@H](O[C@@H]2[C@@H](C)[C@H](O[C@H]3C[C@@](C)(OC)[C@@H](O)[C@H](C)O3)[C@@H](C)C(=O)O[C@H](CC)[C@@](C)(O)[C@H](O)[C@@H](C)C(=O)[C@H](C)C[C@@]2(C)O)O[C@H](C)C[C@@H]1N(C)C [Erythromycin Ethylsuccinate]
Response: true (1)

Query: Another: CC(C)N(CCCNC(=O)Nc1ccc(C(C)(C)C)cc1)C[C@H]1O[C@@H](n2ccc3c(N)ncnc32)[C@H](O)[C@@H]1O
Response: false (0)
